In this section, each of the compounds is paired with its reported GI50.
System: OVCAR-8 ovarian
Experiment: NCI tumour cell line growth inhibition, 48 h

Known GI50 results, listed for orientation:
>  <Compound smiles>
C/C(=N\n1c(N)c(C#N)c(-c2ccc(Cl)cc2)c(C#N)c1=O)c1ccncc1

>  <Target under test>
OVCAR-8 ovarian

>  <Experimental readout>
GI50

>  <Endpoint value>
2.95 µM

$$$$
>  <Compound smiles>
Fc1cc(-c2nnc3n2N=C(c2ccc(Cl)cc2Cl)CS3)c(Cl)cc1Cl

>  <Target under test>
OVCAR-8 ovarian

>  <Experimental readout>
GI50

>  <Endpoint value>
57.3 µM

$$$$
>  <Compound smiles>
CC(C)(CO)N=Cc1ccccc1[O-].CC(C)(CO)N=Cc1ccccc1[O-].[Co+2]

>  <Target under test>
OVCAR-8 ovarian

>  <Experimental readout>
GI50

>  <Endpoint value>
> 100 µM

$$$$

// next item, GI50 requested
For record CCC(=O)c1cc([N+](=O)[O-])c(Br)s1 the listed GI50 is 2.23 µM

* * *

In this section, each of the compounds is paired with its reported TGI.
System: HCC-2998 colon
Experiment: NCI tumour cell line growth inhibition, 48 h
Please reply with the bare figure in µM and do not write the unit itself.

Known TGI results, listed for orientation:
>  <Compound>
C=C(CNCCc1ccc(O)cc1)[C@@H]1CC[C@]2(CO)CC[C@]3(C)[C@H](CC[C@@H]4[C@@]5(C)CCC(N)C(C)(C)[C@@H]5CC[C@]43C)[C@@H]12 (stereo partly drawn)

>  <Endpoint value>
3.3

$$$$
>  <Compound>
COC(=O)c1c(OC)cc2cc3c(c(O)c2c1C)C(=O)C1(O)C(=O)C=C(OC)C(OC(=O)CC(C)N)=C1C3=O (stereo not drawn)

>  <Endpoint value>
87.9

$$$$
>  <Compound>
CC(c1ccccc1)N1CC(C)(c2ccccc2)N(O)C(c2ccccc2)C1C (stereo not drawn)

>  <Endpoint value>
36.9

$$$$

For record Cc1ccc(/C=C2\CN(C)CC3C2=NC(=S)NC3c2ccc(C)cc2)cc1 (stereo not drawn) the listed TGI is 33.4

For record CCN(CC)CCOc1ccc(/C=C2\CC3C4CC=C5C[C@@H](OC(C)=O)CC[C@]5(C)C4CC[C@]3(C)C2=O)cc1OC (stereo partly drawn) the listed TGI is 14.1

For record O=C(Cc1ccc(/C=C/C(=O)c2ncc[nH]2)cc1)Nc1ccc(C(F)(F)F)cc1 the listed TGI is 8.61

For record Cc1cc([N+](=O)[O-])c(S(=O)(=O)c2ccccc2)c([N+](=O)[O-])c1 the listed TGI is 35.7

For record COc1cc2cc(C(=O)N3CC(CCl)c4c3cc([N+](C)(C)Cc3ccc([N+](=O)[O-])n3C)c3ccccc43)[nH]c2c(OC)c1OC (stereo not drawn) the listed TGI is 2.48

For record Cc1cc(NC(=O)NC(=O)c2ccccc2N(C)C)ccc1Oc1ncc(Br)cn1 the listed TGI is 11.8

* * *

Tested on: MCF7 breast
Assay: NCI tumour cell line growth inhibition, 48 h
Experimental readout: TGI

Known TGI results, listed for orientation:
>  <Compound>
COc1cc2cc(Oc3ccc(NC(=O)c4cccc5c4OCCO5)cc3)c(C)nc2cc1OC

>  <TGI>
> 100 µM

$$$$
>  <Compound>
O=C1CC2(CCNCC2)C(=O)N1N1CCOCC1

>  <TGI>
> 100 µM

$$$$
>  <Compound>
CNc1ccc(S(=O)Nc2ccccc2)cc1 (stereo unspecified)

>  <TGI>
> 100 µM

$$$$
>  <Compound>
O=C1/C(=C\c2cccc(Oc3ccccc3)c2)SC(c2ccccc2)N1c1cccc([N+](=O)[O-])c1 (stereo unspecified)

>  <TGI>
> 100 µM

$$$$
>  <Compound>
COC(=O)/C=C/c1ccc2c(c1)CC1(Cc3ccccc3C1)C2

>  <TGI>
> 100 µM

$$$$
>  <Compound>
CC(C)=CCC[C@@H](C)c1c2[nH]c3ccccc3sc-2c(C)c(=O)c1=O

>  <TGI>
> 75 µM

$$$$
>  <Compound>
C=C1CC(Cn2cc(Br)c(=O)[nH]c2=O)(c2ccc(-c3ccccc3)cc2)OC1=O (stereo unspecified)

>  <TGI>
1.75 µM

$$$$
>  <Compound>
CCOC(=O)c1nc2ccccc2nc1NCc1ccc(Cl)cc1Cl

>  <TGI>
> 100 µM

$$$$

Test item Cc1ccc(/C=C2\CNC/C(=C\c3ccc(C)cc3)C2=O)cc1 ; MCF7 breast; reported TGI was > 100 µM

Test item CCCNC(=O)CCC(C)[C@H]1CCC2C3C(C[C@H](OC(C)=O)[C@@]21C)[C@@]1(C)CCC2(C[C@H]1C[C@H]3OC(C)=O)OOC1(CCCCC1)OO2 (stereo partly specified) ; MCF7 breast; reported TGI was > 56.1 µM

Test item CCOC(=O)CCCn1cc(C(=O)OC)nn1 ; MCF7 breast; reported TGI was > 100 µM

src = PubChem BioAssay (NCI)
